# run-description: Physico-chemical characteristics (Table 1)
# Assay type: physicochemical
# Design: unit not given here
observation-type: Critical micellar concentration (CMC)
Answers are plain numbers.

Record excerpt, results attached:
compound	Critical micellar concentration (CMC)
C[C@H](CCC(=O)NCCS(=O)(=O)O)[C@H]1CC[C@H]2[C@@H]3[C@@H](O)C[C@@H]4C[C@H](O)CC[C@]4(C)[C@H]3CC[C@]12C [T-UDCA]	8
C[C@H](CCC(=O)NCC(=O)O)[C@H]1CC[C@H]2[C@@H]3[C@@H](O)C[C@@H]4C[C@H](O)CC[C@]4(C)[C@H]3CC[C@]12C [G-UDCA]	12
C[C@H](CC/C=C/CC(=O)O)[C@H]1CC[C@H]2[C@@H]3[C@@H](O)C[C@@H]4C[C@H](O)CC[C@]4(C)[C@H]3CC[C@]12C [TOL-UDCA]	5

Lab note: next compound to report on.
Requested read-out: Critical micellar concentration (CMC). Entry: C[C@H](CCC(=O)O)[C@H]1CC[C@H]2[C@@H]3[C@@H](O)C[C@@H]4C[C@H](O)CC[C@]4(C)[C@H]3CC[C@]12C [UDCA, ursodeoxycholic acid]
19

----------
# run-description: Physico-chemical characteristics (Table 1)
# Format: physicochemical
# conditions: read-out: Solubility
observation-type: solubility (µM)
Numbers only, in µM.

Recorded solubility for C[C@H](CCC(=O)O)[C@H]1CC[C@H]2[C@@H]3[C@@H](O)C[C@@H]4C[C@H](O)CC[C@]4(C)[C@H]3CC[C@]12C , please?
9

----------
# run-description: Physico-chemical characteristics (Table 1)
# Assay type: physicochemical
Provide the recorded solubility for the entries that follow.
Numbers only, in µM.

compound	value-units	solubility
C[C@H](CC/C=C/CC(=O)O)[C@H]1CC[C@H]2[C@@H]3[C@@H](O)C[C@@H]4C[C@H](O)CC[C@]4(C)[C@H]3CC[C@]12C [TOL-UDCA]	µM	10

Kindly consider the entry below.
Which measured solubility value corresponds to C[C@H](CCC(=O)NCC(=O)O)[C@H]1CC[C@H]2[C@@H]3[C@@H](O)C[C@@H]4C[C@H](O)CC[C@]4(C)[C@H]3CC[C@]12C [G-UDCA] ?
3

----------
# run-description: Physico-chemical characteristics (Table 1)
# Format: physicochemical
# conditions: read-out: pKa
observation-type: pKa
Numbers only.

structure-string	pKa
C[C@H](CCC(=O)O)[C@H]1CC[C@H]2[C@@H]3[C@@H](O)C[C@@H]4C[C@H](O)CC[C@]4(C)[C@H]3CC[C@]12C	5.06

Now for another entry.
Data request, read-out pKa, for C[C@H](CCC(=O)NCCS(=O)(=O)O)[C@H]1CC[C@H]2[C@@H]3[C@@H](O)C[C@@H]4C[C@H](O)CC[C@]4(C)[C@H]3CC[C@]12C
2

----------
# run-description: Effect on bile flow and bile lipid secretion
# Assay type: in vivo, rat
# conditions: intravenous; 6 μmoles/min/kg during 1 hour (stated for TOL-UDCA)
observation-type: SMPL (maximum bile lipid secretion)

Please review the entries below; each comes with its answer.
compound	SMPL (maximum bile lipid secretion)
C[C@H](CCC(=O)NCCS(=O)(=O)O)[C@H]1CC[C@H]2[C@@H]3[C@@H](O)C[C@@H]4C[C@H](O)CC[C@]4(C)[C@H]3CC[C@]12C [T-UDCA]	0,18 μmol/min/kg
C[C@H](CCC(=O)O)[C@H]1CC[C@H]2[C@@H]3[C@@H](O)C[C@@H]4C[C@H](O)CC[C@]4(C)[C@H]3CC[C@]12C [UDCA, ursodeoxycholic acid]	0,22 μmol/min/kg
C[C@H](CCC(=O)NCC(=O)O)[C@H]1CC[C@H]2[C@@H]3[C@@H](O)C[C@@H]4C[C@H](O)CC[C@]4(C)[C@H]3CC[C@]12C [G-UDCA]	0,39 μmol/min/kg

What value of measured SMPL (maximum bile lipid secretion) is listed for C[C@H](CC/C=C/CC(=O)O)[C@H]1CC[C@H]2[C@@H]3[C@@H](O)C[C@@H]4C[C@H](O)CC[C@]4(C)[C@H]3CC[C@]12C [TOL-UDCA] ?
0,12 μmol/min/kg
